Data provenance: PubChem BioAssay (NCI)

System: CAKI-1 renal
Assay: NCI-60 one-dose screen, 48 h (100 = growth as untreated, 0 = no growth, -100 = all killed)
Conditions: 10 µM unless noted
Compounds without any hit were thinned out: in the full panel of roughly 83,000, 20% have a hit. Calls of active or inactive are those of the source. How the source made its calls: active means growth percent below 10; inactive means the rest.
assayEndpoint: growth

Entry `COc1cccc(-c2nnc(N)o2)c1` — recorded growth = 98.4% (inactive)

The compound listed as `CN1COc2ccc3ccccc3c2C1` has a reported growth of 90.9% (inactive)

The value of growth measured for the compound `CCOC(=O)c1cc(-c2cccnc2)nc2c(Cl)cc(Cl)cc12` turned out to be 105% (inactive)

---
Form field growth, entry `CN(C)c1ccc2c(c1)/C(=N/O)c1ccccc1-2` : 46.6% (inactive)

Sure, the documented growth for `C[C@]12CC[C@@H]3c4ccc(O)cc4CC[C@H]3[C@@H]1CC[C@@H]2NS(=O)(=O)c1cccc(Br)c1` is 62.9% (inactive)

Just so you know, measured growth for `O=C1C[C@@H]2/C(=C(O)\C=C\c3ccccc3)C(=O)C=C[C@@H]2O1` came out at -54% (active)

Briefly, growth measured for `O=C(Nc1cccc(C(F)(F)F)c1)Nc1ccc(OCc2nnc(-c3ccc(Cl)cc3)o2)c(F)c1` : 80.1% (inactive)

The compound identified as O=C(C(Br)Br)C(Br)C(Br)c1ccccc1 (centres undefined) registered its growth at 72.7% (inactive)

Reported growth ( `Cc1nn(-c2ccc(Cl)cc2)c2nc3c(nc12)C(=O)c1ccccc1-3` ) = 82.9% (inactive)

growth for `CSC1=Nc2c(c(C)c(-c3ccccc3)n2CCCN2CCCCC2)C2=NC(=O)C[C@H](C)N12` is 66.9% (inactive)

growth reported for this compound `CCOC(=O)c1c2c(c(C)n1Cc1ccc(OC)cc1)-c1nc(N)ncc1CC2` : 101% (inactive)

Reported growth for `CCN1C2=C(SC(=S)C1=C1SC(C(=O)OC)=C(C(=O)OC)S1)SC(=Nc1ccc(OC)cc1)C2=O` was -38.4% (active)

Consider `COc1ccc(C(=O)COc2cccc(/C=C3\Oc4ccc5ccccc5c4C3=O)c2)cc1` . Its measured growth is 27.6% (inactive)

So for CO[C@H]1CC(O[C@@H]2/C(C)=C/C[C@@H]3C[C@@H](C[C@]4(CC[C@H](C)[C@@H](C5CCCCC5)O4)O3)OC(=O)[C@@H]3C=C(C)/C(=N/O)[C@H]4OC/C(=C\C=C\[C@@H]2C)[C@]43O)O[C@@H](C)C1O (some centres undefined) , the logged growth turned out to be -73.8% (active)

====

Listed compounds paired with reported growth
Test system: NCI-H522 lung
Assay: NCI-60 one-dose screen, 48 h (100 = growth as untreated, 0 = no growth, -100 = all killed)
Details: 10 µM unless noted
About 83,000 compounds went through this panel and 20% of them were active in at least one assay; those are over-represented in the sample as a whole. Activity calls are given as the source filed them. Rule for the calls: active = growth percent below 10; inactive = the rest.

The measured growth associated with `CCCn1cnc2c1c(=O)n(CCCCC(C)=O)c(=O)n2C` reads 113% (inactive)

Memo: `COc1ccc(OC)c2c1[nH]c(=O)c1c3ccccc3cn21` , reported growth: -50.4% (active)

So, `O=C1CC(C(F)(F)F)=NN1C(=O)c1nn(-c2ccc(Cl)cc2)cc1O` ? Its growth was 89.9% (inactive)

Sample `Cc1cc(C)n2nc(SCC(=O)Nc3sc4c(c3C(N)=O)CCC4)nc2n1` ; growth observed: 94% (inactive)

Briefly, growth measured for `Cc1nnc(Nc2ccc(NC(=O)Nc3ccc(Cl)cc3)cc2)c2ccccc12` : 30.3% (inactive)

// growth lookup, compound = `O=C(O)c1ccc(NC(=O)c2ccc(Nc3ccnc(C(F)(F)F)c3)cc2)cc1` , result: 103% (inactive)

Record summary for `CC(C)c1nc(N(C)S(C)(=O)=O)nc(-c2ccc(F)cc2)c1/C=C/[C@@H](O)C[C@@H](O)CC(=O)O` : reported growth = 69.9% (inactive)
